Values were extracted from the array DNA melting data of Ke et al. (doi:10.1101/2024.01.08.574731).

- assay summary: melting temperature; fluorescence melt of hairpins on a sequencing array, two-state fit, raised by 9.35 °C to match UV melts
- condition description: sodium 0.088 M
assay endpoint: Tm (°C)
State just the number; it will be interpreted in °C.

**Query** # Tm lookup, item GTGCCTACGAAAGTACAC (((..(((....))))))
**Result** 37.8

**Query** Same read-out for GCAGTGCGAAAGCATAGC ((..(((....)))..)) ?
**Result** 55.4

**Query** Same read-out for GATAGAGAAATCTATC ((((((....)))))) ?
**Result** 36.8

**Query** Same read-out for GCCGCCGAAAGGCAAGGC ((((((....)))..))) ?
**Result** 65.5

**Query** Same read-out for GTCCCTCGAAAGAGTGAC (((.(((....))).))) ?
**Result** 45.3

**Query** Same read-out for GATCGTGTTCACGATC ((((((....)))))) ?
**Result** 58.8

**Query** Same read-out for GTGCCAGGAAACTGGTGC (..((((....))))..) ?
**Result** 48

**Query** Same read-out for GGTAGGGAAACCTACC ((((((....)))))) ?
**Result** 54.6

**Query** Same read-out for GATCTATATATAGATC ((((((....)))))) ?
**Result** 46.4

**Query** Same read-out for GATCTCTTTGGAGATC ((((((....)))))) ?
**Result** 55.1

**Query** Same read-out for GTGTCGTCGAAAGACCAC (((..(((....)))))) ?
**Result** 38.4

**Query** Same read-out for GGCGTGGGAAACTGCGCC ((((..(....)..)))) ?
**Result** 55.7
